Tested on: BT-549 breast
Experiment: NCI tumour cell line growth inhibition, 48 h
Parameter: GI50. Scope: all listed entries.
Metric: GI50

Record smiles: CCOC(=O)Oc1c(OC)cc(C(=O)O[C@@H]2C[C@@H]3CN4CCc5c([nH]c6cc(OC)ccc56)[C@H]4C[C@@H]3[C@H](C(=O)OC)[C@H]2OC)cc1OC
Reported result: 9.08 µM
--
Record smiles: C=C1C(=O)O[C@H]2[C@H]1CC/C(Cn1cc(-c3ccccc3)nn1)=C\CC[C@@]1(C)O[C@@H]21
Reported result: 2.65 µM
--
Record smiles: O=C1c2ccccc2-c2c1c1ccccc1c(=O)n2CCNCCNCCn1c2c(c3ccccc3c1=O)C(=O)c1ccccc1-2
Reported result: 3.47 µM
